tested on: MCF7; test: NCI tumour cell line growth inhibition, 48 h
Calls of active or inactive are those of the source. No stated cut-off is given here; in the data, active = GI50 up to about 1.1 µM and inactive = higher.
Allowed answers: class 1 (active), class 0 (inactive)

Challenge: // return assay outcome for COc1cc2c(cc1C)NC(=O)/C2=C\c1ccncc1
Response given: class 0

---

system: MOLT-4; assay: NCI tumour cell line growth inhibition, 48 h
Calls of active or inactive are those of the source. Rule as the data show it: active = GI50 up to about 1.1 µM and inactive = higher.
Observation type: GI50

CN1CCc2c([nH]c3ccccc23)C1: > 100 µM (inactive)
Cc1nc2c(nc1Cl)nc(Oc1ccc(Cl)cc1)c1ccccc12: > 100 µM (inactive)
CN(C)c1ccc(/C=C2\N=C(c3ccccc3)N(c3nc4c(Cl)cc(Cl)cc4s3)C2=O)cc1: 22.6 µM (inactive)

Challenge: For MOLT-4, give the measured GI50 of the entry O=c1c(C(c2ccc(/C=C/c3ccccc3)cc2)c2c(O)oc3ccccc3c2=O)c(O)oc2ccccc12
Response given: 24.1 µM (inactive)

Challenge: For MOLT-4, give the measured GI50 of the entry COC(=O)c1ccc(/C=C2\Oc3cc(O)ccc3C2=O)cc1
Response given: 43.7 µM (inactive)

Challenge: For MOLT-4, give the measured GI50 of the entry COC12OC3(C4OC41)C(C(=O)O[C@H]3CO[Si](C)(C)C(C)(C)C)C2C(=O)Oc1ccccc1 (stereo partly drawn)
Response given: > 100 µM (inactive)

Challenge: For MOLT-4, give the measured GI50 of the entry CN(C)CCCn1c(-c2ccc(Br)cc2)cs/c1=N\c1ccccc1
Response given: 15.4 µM (inactive)

Challenge: For MOLT-4, give the measured GI50 of the entry CC(=O)OCC1OC(OC2C(CSC3OC(COC(C)=O)C(OC(C)=O)C(OC(C)=O)C3OC(C)=O)OC(OC(C)=O)C(OC(C)=O)C2OC(C)=O)C(OC(C)=O)C(OC(C)=O)C1OC(C)=O (stereo not drawn)
Response given: > 100 µM (inactive)
